meta.source: patent US20200339702A1

target: T1, human ERBB3 His tagged, monomeric (human, UniProt P21860 20-643, biotinylated in the Alphascreen assays (sites not given)); experiment: SPR (Biacore), captured IgG, monomeric ERBB3-His analyte
T1 construct: Used unbiotinylated as Biacore analyte and biotinylated in Alphascreen; treated as one molecule; also called human ERBB3-His (Acrobiosystems); biotinylated monomeric human ERBB3
ASSAY READOUT: kon (M⁻¹ s⁻¹)
Enter your answer as a number in M⁻¹ s⁻¹; do not include the unit.

Lookup: What kon value was documented for this binder, TTP IgG1null (antibody, V domains shown, Designer clone; Human IgG1null and human Ckappa; also called Total Theoretically Possible clone) VH: QVQLVESGGGLVKPGGSLRLSCAASGFTFSDYGMSWIRQAPGKGLEWVSTISDSGSTIYYADSVKGRFTISRDNAKNSLYLQMNSLRAEDTAVYYCAREYGDYDGFDYWGQGTLVTVSS VL: DIQMTQSPSSLSASVGDRVTITCRASQSISSYLNWYQQKPGKAPKLLIYAASSLQSGVPSRFSGSGSGTDFTLTISSLQPEDFATYYCLQYDSTPLTFGGGTKVEIK ?
Found: 6.2e+07
